# pKi annotations
Target: Prostaglandin E2 receptor EP3 subtype (Mus musculus)
Sequence (P30557 whole entry): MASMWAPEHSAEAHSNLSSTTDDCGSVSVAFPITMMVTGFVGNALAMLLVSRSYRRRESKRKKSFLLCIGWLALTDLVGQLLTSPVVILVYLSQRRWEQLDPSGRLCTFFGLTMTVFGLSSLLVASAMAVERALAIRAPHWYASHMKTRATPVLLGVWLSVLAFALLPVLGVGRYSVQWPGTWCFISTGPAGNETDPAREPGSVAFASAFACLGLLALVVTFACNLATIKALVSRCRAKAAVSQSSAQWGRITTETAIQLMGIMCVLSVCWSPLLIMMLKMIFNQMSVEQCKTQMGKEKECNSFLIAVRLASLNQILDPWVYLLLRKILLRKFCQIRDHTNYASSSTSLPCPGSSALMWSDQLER
Assay: Binding affinity towards mouse Prostanoid EP3 receptor in CHO cells.
Assay type: cell-based
pKi: −log10 of the molar value.
RECORDED_ENDPOINT: pKi

CCCCCC(O)/C=C/[C@H]1[C@H](O)CC(=O)[C@@H]1CCCCCCC(=O)O (single isomer, unassigned) [ALPROSTADIL] | 8.30
CCCCC1([C@@H](O)C/C=C/[C@H]2[C@H](O)CC(=O)[C@@H]2C/C=C\CCCC(=O)O)CCC1 | 5.70
